Every entry's value here was drawn from the supplement of paper PMC10567573.

B1: FBXO34 (parent)
chain: PRYREDPCKQCKKKYVKGDVSLCR

Variants of: B1
Assay: protein stability index of a GFP-peptide fusion (GPS, HEK-293T) (PSI 1-6); higher = more stable;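 also: lentivirally expressed fusions sorted by FACS into six bins by GFP to DsRed ratio, PSI derived from sequencing read proportions per bin multiplied by bin number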
Details: c terminus: a fixed tail appended
Reported Metric: protein stability index
Just the number.

Worked cases, protein stability index given:
C23F | 2.27
D6W | 1.98
C23I | 2.59
K9F | 2.14
C23R | 2.86

input: Which measured protein stability index value corresponds to P1S ?
output: 2.6

input: Can you look up the measured protein stability index of Y3H for me?
output: 2.67

input: Fill in: protein stability index of K17E is ___
output: 2.53

input: Sample K12Q — what was its protein stability index?
output: 2.57

input: Any idea what its protein stability index is? The variant is D6T
output: 2.61

input: Name the reported protein stability index value associated with the variant K17I
output: 2.21

input: Looking for the measured protein stability index of E5L , can you help?
output: 2.78
